Where do these numbers come from? They come from ChEMBL document CHEMBL5143680.

# Test system: SNB-19
# assay-remarks: Cytotoxicity against human SNB-19 cells measured after 72 hrs by MTT assay
# Format: functional, cell-based
# run-conditions: SNB-19, 72 h
pIC50: −log10 of the molar value.
quantity-kind: pIC50

# lookup: pIC50 of `C=C1[C@@H](C)[C@H]2[C@H](Cc3ccccc3)NC(=O)[C@@]23[C@@H]([C@@H]2[C@H](/C=C(/C)C[C@@H](C)C[C@H]2Br)[C@H]3OC(C)=O)[C@@H]1O`
< 4.30

# lookup: pIC50 of `C=C1[C@@H](C)[C@H]2[C@H](Cc3ccccc3)NC(=O)[C@@]23[C@H]2[C@@H]4[C@H](C(C)=C[C@@H](C)C[C@H]4O[C@H]12)[C@H]3O`
< 4.30

# lookup: pIC50 of `C=C1[C@@H](C)[C@H]2[C@H](Cc3ccccc3)NC(=O)[C@@]23[C@@H]([C@@H]2[C@H](/C=C(/C)C[C@@H](C)C[C@H]2I)[C@H]3OC(C)=O)[C@@H]1O`
< 4.30

# lookup: pIC50 of `C=C1[C@@H](C)[C@H]2[C@H](Cc3ccccc3)NC(=O)[C@]23[C@H](O)/C=C/[C@](C)(O)C[C@@H](C)C/C=C/[C@H]3[C@@H]1O`
5.17

# lookup: pIC50 of `CC(=O)O[C@@H]1/C=C/[C@](C)(O)C[C@@H](C)C/C=C/[C@H]2C=C(C(=O)O)[C@@H](C)[C@H]3[C@H](Cc4ccccc4)NC(=O)[C@]321`
< 4.30

# lookup: pIC50 of `CC(=O)O[C@@H]1/C=C/[C@](C)(O)C[C@@H](C)C/C=C/[C@H]2C=C(C)[C@@H](C)[C@H]3[C@H](Cc4ccccc4)NC(=O)[C@]321`
< 4.30

# lookup: pIC50 of `C[C@H]1C/C=C/[C@H]2C=C(CO)[C@@H](C)[C@H]3[C@H](Cc4ccccc4)NC(=O)[C@]32[C@H](O)/C=C/[C@](C)(O)C1`
< 4.30

# lookup: pIC50 of `C=C1[C@@H](C)[C@H]2[C@H](Cc3ccccc3)NC(=O)[C@@]23[C@H]2[C@@H]4[C@H](C(C)=C[C@@H](C)C[C@H]4O[C@H]12)[C@H]3OC(C)=O`
< 4.30

# lookup: pIC50 of `C=C1[C@@H](C)[C@H]2[C@H](Cc3ccccc3)NC(=O)[C@]23[C@H](OC(C)=O)/C=C/C(C)=C\[C@@H](C)C/C=C/[C@H]3[C@@H]1O`
4.38

# lookup: pIC50 of `CC1=C[C@@H]2/C=C/C[C@H](C)C[C@@](C)(O)[C@@H]3O[C@H]3C(=O)[C@]23C(=O)N[C@@H](Cc2ccccc2)[C@@H]3[C@@H]1C`
< 4.30

# lookup: pIC50 of `C=C1[C@@H](C)[C@H]2[C@H](Cc3ccccc3)NC(=O)[C@]23[C@H](OC(C)=O)/C=C/[C@](C)(O)C[C@@H](C)C/C=C/[C@H]3[C@@H]1O`
4.59

# lookup: pIC50 of `C=C1[C@@H](C)[C@H]2[C@H](Cc3ccccc3)NC(=O)[C@]23[C@H](OC(C)=O)[C@@H]2O[C@H]2[C@](C)(O)C[C@@H](C)C/C=C/[C@H]3[C@@H]1O`
< 4.30

---

Assign pIC50 to each entry below.
# Tested on: HepG2
# assay-remarks: Cytotoxicity against human HepG2 cells measured after 72 hrs by MTT assay
# Type: functional, cell-based
# run-conditions: HepG2, 72 h
pIC50: −log10 of the molar value.

# lookup: pIC50 of `CC(=O)O[C@@H]1/C=C/[C@](C)(O)C[C@@H](C)C/C=C/[C@H]2C=C(C)[C@@H](C)[C@H]3[C@H](Cc4ccccc4)NC(=O)[C@]321`
< 4.30

# lookup: pIC50 of `C=C1[C@@H](C)[C@H]2[C@H](Cc3ccccc3)NC(=O)[C@@]23[C@H]2[C@@H]4[C@H](C(C)=C[C@@H](C)C[C@H]4O[C@H]12)[C@H]3OC(C)=O`
< 4.30

# lookup: pIC50 of `C=C1[C@@H](C)[C@H]2[C@H](Cc3ccccc3)NC(=O)[C@]23[C@H](OC(C)=O)/C=C/C(C)=C\[C@@H](C)C/C=C/[C@H]3[C@@H]1O`
< 4.30

# lookup: pIC50 of `C=C1[C@@H](C)[C@H]2[C@H](Cc3ccccc3)NC(=O)[C@@]23[C@H]2[C@@H]4[C@H](C(C)=C[C@@H](C)C[C@H]4O[C@H]12)[C@@H](I)[C@H]3O`
< 4.30

# lookup: pIC50 of `CC1=C[C@@H]2/C=C/C[C@H](C)C[C@@](C)(O)/C=C/[C@@H](O)[C@]23C(=O)N[C@@H](Cc2ccccc2)[C@@H]3[C@@H]1C`
< 4.30

---

# Tested on: SNB-19
# assay-remarks: Cytotoxicity against human SNB-19 cells measured after 72 hrs by MTT assay
# Format: functional, cell-based
# run-conditions: SNB-19, 72 h
quantity-kind: IC50

# lookup: IC50 of `CC1=C[C@@H]2/C=C/C[C@H](C)C[C@H](C)[C@@H]3O[C@H]3C(=O)[C@]23C(=O)N[C@@H](Cc2ccccc2)[C@@H]3[C@@H]1C`
> 50 µM

# lookup: IC50 of `C=C1[C@@H](C)[C@H]2[C@H](Cc3ccccc3)NC(=O)[C@@]23[C@@H]([C@@H]2[C@H](/C=C(/C)C[C@@H](C)C[C@H]2O)[C@H]3OC(C)=O)[C@@H]1O`
> 50 µM

# lookup: IC50 of `C=C1/C=C/[C@@H](OC(C)=O)[C@@]23C(=O)N[C@@H](Cc4ccccc4)[C@@H]2[C@H](C)C(=C)[C@@H](O)[C@@H]3/C=C/C[C@H](C)C1`
16 µM

# lookup: IC50 of `CC(=O)O[C@@H]1/C=C/[C@](C)(O)C[C@@H](C)C/C=C/[C@H]2C=C(CO)[C@@H](C)[C@H]3[C@H](Cc4ccccc4)NC(=O)[C@]321`
6.9 µM

# lookup: IC50 of `CC1=C[C@@H]2/C=C/C[C@H](C)C[C@@](C)(O)/C=C/[C@@H](O)[C@]23C(=O)N[C@@H](Cc2ccccc2)[C@@H]3[C@@H]1C`
> 50 µM

# lookup: IC50 of `C=C1[C@@H](C)[C@H]2[C@H](Cc3ccccc3)NC(=O)[C@@]23[C@H]2[C@@H]4[C@H](C(C)=C[C@@H](C)C[C@H]4O[C@H]12)[C@@H](I)[C@H]3O`
> 50 µM

---

# Tested on: A549
# assay-remarks: Cytotoxicity against human A549 cells measured after 72 hrs by MTT assay
# Type: functional, cell-based
# run-conditions: A549, 72 h
quantity-kind: IC50

# lookup: IC50 of `CC(=O)O[C@@H]1/C=C/[C@](C)(O)C[C@@H](C)C/C=C/[C@H]2C=C(C)[C@@H](C)[C@H]3[C@H](Cc4ccccc4)NC(=O)[C@]321`
> 50 µM

# lookup: IC50 of `CC(=O)O[C@@H]1/C=C/[C@](C)(O)C[C@@H](C)C/C=C/[C@H]2C=C(CO)[C@@H](C)[C@H]3[C@H](Cc4ccccc4)NC(=O)[C@]321`
38 µM

# lookup: IC50 of `C=C1[C@@H](C)[C@H]2[C@H](Cc3ccccc3)NC(=O)[C@@]23[C@@H]([C@@H]2[C@H](/C=C(/C)C[C@@H](C)C[C@H]2Br)[C@H]3OC(C)=O)[C@@H]1O`
> 50 µM

# lookup: IC50 of `C=C1[C@@H](C)[C@H]2[C@H](Cc3ccccc3)NC(=O)[C@]23[C@H](OC(C)=O)/C=C/C(C)=C\[C@@H](C)C/C=C/[C@H]3[C@@H]1O`
> 50 µM

# lookup: IC50 of `CC1=C[C@@H]2/C=C/C[C@H](C)C[C@H](C)[C@@H]3O[C@H]3C(=O)[C@]23C(=O)N[C@@H](Cc2ccccc2)[C@@H]3[C@@H]1C`
> 50 µM

# lookup: IC50 of `C=C1[C@@H](C)[C@H]2[C@H](Cc3ccccc3)NC(=O)[C@]23[C@H](O)/C=C/[C@](C)(O)C[C@@H](C)C/C=C/[C@H]3[C@@H]1O`
> 50 µM

# lookup: IC50 of `C=C1[C@@H](C)[C@H]2[C@H](Cc3ccccc3)NC(=O)[C@@]23[C@H]2[C@@H]4[C@H](C(C)=C[C@@H](C)C[C@H]4O[C@H]12)[C@H]3OC(C)=O`
> 50 µM

# lookup: IC50 of `C=C1[C@@H](C)[C@H]2[C@H](Cc3ccccc3)NC(=O)[C@@]23[C@@H]([C@@H]2[C@H](/C=C(/C)C[C@@H](C)C[C@H]2I)[C@H]3OC(C)=O)[C@@H]1O`
33 µM
